These entries and their values trace back to ChEMBL document CHEMBL3433997.

For each record, write down the corresponding inhibition.
Biological target: Solute carrier family 2, facilitated glucose transporter member 1 (Homo sapiens) (UniProt P11166)
Sequence (P11166 whole entry): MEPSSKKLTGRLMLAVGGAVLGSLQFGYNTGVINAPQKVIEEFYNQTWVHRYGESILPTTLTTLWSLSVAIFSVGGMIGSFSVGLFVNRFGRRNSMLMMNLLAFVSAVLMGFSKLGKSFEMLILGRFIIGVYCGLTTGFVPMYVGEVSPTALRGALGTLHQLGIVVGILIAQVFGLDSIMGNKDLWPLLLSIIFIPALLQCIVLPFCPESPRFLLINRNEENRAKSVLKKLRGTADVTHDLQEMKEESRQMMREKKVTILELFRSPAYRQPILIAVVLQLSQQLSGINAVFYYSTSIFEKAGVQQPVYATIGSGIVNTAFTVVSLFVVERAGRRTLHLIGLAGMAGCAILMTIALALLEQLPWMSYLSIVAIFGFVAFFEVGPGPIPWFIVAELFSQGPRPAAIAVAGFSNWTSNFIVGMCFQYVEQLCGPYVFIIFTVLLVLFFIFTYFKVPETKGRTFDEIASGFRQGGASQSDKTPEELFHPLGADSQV
Test: ST_JUDE_LEISH: Cytotoxicity at 2uM final concentration against transgenic Leishmania Mexicana promastigotes LmGLUT1 that are glucose transport deficient and complemented with the human glucose transporter GLUT1. Activity is measured by DNA content using SYBR green in vitro
Format: functional
Note: unit % is implicit; provide only the numeric part.

Query inhibition for "Cc1cccc2nc(-c3ccc(-c4cccc(NC(=O)Nc5cccc(C#N)c5)c4)cc3)[nH]c12" 0.79

Query inhibition for "O=S(=O)(c1c(Cl)cc(Cl)cc1Cl)N1CCCCC(c2ccc(C(F)(F)F)cc2)=N1" 5.69

Query inhibition for "COc1cc2c(cc1OC)CN(CCCCc1ccc(NC(=O)c3cc(Cl)cc(Cl)c3)cc1)CC2" 4.58

Query inhibition for "COc1cc2c(cc1S(=O)(=O)c1ccc(OCc3ccc(Cl)cc3)cc1)CCN(Cc1ccc(NC(C)=O)s1)CC2" 4.82

Query inhibition for "NC(=O)c1ccc(NCC(=O)Nc2cccc(-c3cccc(-c4nc5ccccc5[nH]4)c3)c2)cc1" 2.82

Query inhibition for "CCc1cc(CNC2CCN(CCc3c(F)cnc4ccc(OC)nc34)CC2)cc2c1OCCO2" 23.9

Query inhibition for "COc1ccc2ncc(F)c(CCN3C[C@H](CNCc4cc(C#N)c5c(c4)OCCO5)[C@H](O)C3)c2n1" 7.97

Query inhibition for "CC(C)(C)c1ccc(NC(=O)c2cccc(CN3CCCN(CC4CCCCC4)CC3)c2)cc1" 3.24

Query inhibition for "COc1ccc2nccc([C@@H](O)CN3CCC(NC(=O)C(=Cc4ccc(C#N)cc4)c4ccc(-c5ccccc5)cc4)CC3)c2c1" 1.28

Query inhibition for "COc1ccc2c(CCNc3nc(SC)ncc3C(=O)NCCc3ccc(F)cc3)c[nH]c2c1" 2.09

Query inhibition for O=C(Nc1ccc(OC2CCN(Cc3ccc(F)cc3)C2)cc1)c1cccs1 (stereo not drawn) -3.81

Query inhibition for "COc1ccc2nccc([C@@H](O)CN3CCC(NC(=O)c4cc5c(F)cc(F)cc5[nH]4)CC3)c2n1" 87

Query inhibition for "CC(C)(C)c1ccc(NC(=O)c2ccc(CN3CCCN(Cc4ccsc4)CC3)cc2)cc1" 9.06

Query inhibition for CC(C)n1cc(CN2CCCC(C(=O)Nc3cccc(-c4cc5ccccc5[nH]4)c3)C2)cn1 (stereo not drawn) 2.2

Query inhibition for "Cc1cccc2nc(-c3ccc(-c4cccc(CNCCc5ccncc5)c4)s3)[nH]c12" 3.13

Query inhibition for "CC(C)CCn1c(Sc2ccc(C#N)c([N+](=O)[O-])c2)nnc1-c1ccc(N(C)C)cc1" 0.76

Query inhibition for "CCCCN(C(=O)c1ccccc1Cl)c1nnc(-c2ccccc2C)s1" -1.28

Query inhibition for "O=C(CCCc1ccccc1)Nc1cccc(N2CCC(N3CCN(c4ccccc4O)CC3)CC2)c1" 11.8
